System: Staphylococcus haemolyticus CNCM I-4170
Assay: Protocol A: in-vitro malodor inhibition (free thiol groups from Cys-Gly precursor, DTNB absorbance at 412 nm)
Assay type: cell-based
Conditions: Staphylococcus haemolyticus, CNCMI4170; Table 2; 0.0125 w/v % in medium; read-out: Ingredient Malodor Inhibition Value (%)
measure: inhibition at 0.0125 % (%)
Numeric only. Scale: %

# compound, inhibition at 0.0125 % [%]
measured = [
    ("CCCCCCCCC=O", 80.4),
    ("CC1(C)C2CC=C(CCC=O)C1C2 (stereo not drawn)", 96.7),
    ("CCCCC/C=C/CCC=O [(E)-4-Decenal]", 90.1),
]

Data request: Report measured inhibition at 0.0125 %; entry is CC1=CC2CC(C=O)C1CC2C(C)C (stereo not drawn)
Data returned: 84.5

Data request: Answer with the recorded inhibition at 0.0125 % of CCCCCCCCC/C=C/C=O [(E)-2-Dodecenal] only.
Data returned: 94
